Data provenance: ChEMBL document CHEMBL1146304

testTarget: Progesterone receptor (Homo sapiens)
Sequence (P06401 whole entry): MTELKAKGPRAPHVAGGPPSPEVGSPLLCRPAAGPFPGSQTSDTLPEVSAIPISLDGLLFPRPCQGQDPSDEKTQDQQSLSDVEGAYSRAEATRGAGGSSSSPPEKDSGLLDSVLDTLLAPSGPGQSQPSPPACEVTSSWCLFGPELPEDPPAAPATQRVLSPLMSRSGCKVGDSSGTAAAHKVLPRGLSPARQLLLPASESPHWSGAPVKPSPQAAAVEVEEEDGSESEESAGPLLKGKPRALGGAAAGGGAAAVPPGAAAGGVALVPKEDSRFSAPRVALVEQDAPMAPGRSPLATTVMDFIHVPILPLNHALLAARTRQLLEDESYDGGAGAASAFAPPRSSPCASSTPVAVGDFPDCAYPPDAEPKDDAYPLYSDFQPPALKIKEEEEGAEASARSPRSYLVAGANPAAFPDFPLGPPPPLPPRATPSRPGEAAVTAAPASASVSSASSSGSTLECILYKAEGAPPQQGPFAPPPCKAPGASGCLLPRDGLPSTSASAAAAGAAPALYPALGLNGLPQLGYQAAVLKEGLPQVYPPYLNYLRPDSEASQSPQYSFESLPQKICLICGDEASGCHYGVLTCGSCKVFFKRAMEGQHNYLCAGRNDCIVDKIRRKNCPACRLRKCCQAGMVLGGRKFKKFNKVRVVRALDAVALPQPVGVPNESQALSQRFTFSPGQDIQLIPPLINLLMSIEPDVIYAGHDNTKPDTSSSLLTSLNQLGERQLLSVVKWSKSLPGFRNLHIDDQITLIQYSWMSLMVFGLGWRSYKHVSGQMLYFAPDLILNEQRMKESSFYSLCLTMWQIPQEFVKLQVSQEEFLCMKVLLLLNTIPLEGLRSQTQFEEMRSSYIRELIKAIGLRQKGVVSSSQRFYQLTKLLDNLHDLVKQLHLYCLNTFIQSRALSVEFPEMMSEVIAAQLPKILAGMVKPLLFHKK
Below, each of the compounds is paired with its reported IC50 value.

- compound: "Cc1cc(C)c(S(=O)(=O)N[C@@H](C)Cc2c[nH]c3ccccc23)c(C)c1"
  outputUnit: "µM"
  signQualifier: "="
  IC50: 1.2
- compound: "CC(Cc1c[nH]c2ccccc12)NS(=O)(=O)c1c(Cl)cccc1Cl (stereo not drawn)"
  outputUnit: "µM"
  signQualifier: "="
  IC50: 0.17
- compound: "CC(Cc1c[nH]c2ccccc12)NS(=O)(=O)c1cc(Cl)c(Cl)cc1Cl (stereo not drawn)"
  outputUnit: "µM"
  signQualifier: "="
  IC50: 0.44
- compound: "CC(Cc1c[nH]c2ccccc12)NS(=O)(=O)c1c(C(C)C)cc(C(C)C)cc1C(C)C (stereo not drawn)"
  outputUnit: "µM"
  signQualifier: ">"
  IC50: 2
- compound: "CC(Cc1c[nH]c2ccccc12)NS(=O)(=O)c1ccc(Cl)cc1Cl (stereo not drawn)"
  outputUnit: "µM"
  signQualifier: ">"
  IC50: 2
- compound: "C[C@@H]1C[C@H]2[C@@H]3CCC4=CC(=O)C=C[C@]4(C)[C@@]3(F)[C@@H](O)C[C@]2(C)[C@@]1(O)C(=O)CO"
  outputUnit: "µM"
  signQualifier: ">"
  IC50: 2
- compound: "CC(Cc1c[nH]c2ccccc12)NS(=O)(=O)c1ccc(C(C)(C)C)cc1 (stereo not drawn)"
  outputUnit: "µM"
  signQualifier: ">"
  IC50: 2
- compound: "CC(Cc1c[nH]c2ccccc12)NS(=O)(=O)c1ccc(C(C)C)cc1 (stereo not drawn)"
  outputUnit: "µM"
  signQualifier: "="
  IC50: 1

====

testTarget: UniProt:P08235
Sequence (P08235 whole entry): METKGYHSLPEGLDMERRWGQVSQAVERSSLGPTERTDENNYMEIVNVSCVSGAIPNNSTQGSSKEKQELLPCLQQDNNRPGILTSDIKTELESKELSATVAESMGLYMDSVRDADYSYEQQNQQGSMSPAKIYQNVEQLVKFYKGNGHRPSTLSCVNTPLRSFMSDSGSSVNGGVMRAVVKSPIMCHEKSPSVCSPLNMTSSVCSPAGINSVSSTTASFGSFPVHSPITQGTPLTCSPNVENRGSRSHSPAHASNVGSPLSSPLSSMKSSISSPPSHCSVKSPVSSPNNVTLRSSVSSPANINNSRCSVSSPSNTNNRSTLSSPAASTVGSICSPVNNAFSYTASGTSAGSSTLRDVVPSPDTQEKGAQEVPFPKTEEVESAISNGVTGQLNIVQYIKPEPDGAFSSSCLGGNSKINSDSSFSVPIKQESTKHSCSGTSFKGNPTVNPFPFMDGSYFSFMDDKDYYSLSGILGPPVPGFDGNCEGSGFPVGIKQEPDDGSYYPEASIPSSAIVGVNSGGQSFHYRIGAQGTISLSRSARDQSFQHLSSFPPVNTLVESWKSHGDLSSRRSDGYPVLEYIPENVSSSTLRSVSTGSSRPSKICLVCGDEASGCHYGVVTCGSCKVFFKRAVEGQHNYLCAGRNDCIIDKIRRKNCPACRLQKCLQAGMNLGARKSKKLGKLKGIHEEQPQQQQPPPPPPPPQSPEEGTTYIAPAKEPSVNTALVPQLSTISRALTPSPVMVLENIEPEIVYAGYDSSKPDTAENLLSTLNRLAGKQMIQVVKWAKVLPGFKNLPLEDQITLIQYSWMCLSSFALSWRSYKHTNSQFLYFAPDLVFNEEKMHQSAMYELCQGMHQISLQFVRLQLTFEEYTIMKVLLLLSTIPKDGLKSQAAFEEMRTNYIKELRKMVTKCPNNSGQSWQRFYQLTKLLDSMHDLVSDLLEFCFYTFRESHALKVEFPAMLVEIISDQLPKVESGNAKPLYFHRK
Listed below: IC50 values for each entry.
endpointName: IC50 (µM)

- compound: "CC(Cc1c[nH]c2ccccc12)NS(=O)(=O)c1ccc(Cl)cc1Cl (configuration not stated)"
  endpointName: "IC50"
  outputUnit: "µM"
  valueObserved: 0.85
- compound: "Cc1cc(C)c(S(=O)(=O)N[C@H](C)Cc2c[nH]c3ccccc23)c(C)c1"
  endpointName: "IC50"
  outputUnit: "µM"
  valueObserved: 0.52
- compound: "CC(Cc1c[nH]c2ccccc12)NS(=O)(=O)c1ccc(C(C)C)cc1 (configuration not stated)"
  endpointName: "IC50"
  outputUnit: "µM"
  valueObserved: 1.4
- compound: "Cc1cc(C)c(S(=O)(=O)NC(C)Cc2c[nH]c3ccccc23)c(C)c1 (configuration not stated)"
  endpointName: "IC50"
  outputUnit: "µM"
  valueObserved: 0.29
- compound: "CC(Cc1c[nH]c2ccccc12)NS(=O)(=O)c1c(Cl)cccc1Cl (configuration not stated)"
  endpointName: "IC50"
  outputUnit: "µM"
  valueObserved: 1.6
- compound: "CC(Cc1c[nH]c2ccccc12)NS(=O)(=O)c1ccc(C(C)(C)C)cc1 (configuration not stated)"
  endpointName: "IC50"
  outputUnit: "µM"
  valueObserved: 1.07
- compound: "Cc1cc(C)c(S(=O)(=O)N[C@@H](C)Cc2c[nH]c3ccccc23)c(C)c1"
  endpointName: "IC50"
  outputUnit: "µM"
  valueObserved: 1

====

testTarget: Glucocorticoid receptor (Homo sapiens)
Sequence (P04150 whole entry): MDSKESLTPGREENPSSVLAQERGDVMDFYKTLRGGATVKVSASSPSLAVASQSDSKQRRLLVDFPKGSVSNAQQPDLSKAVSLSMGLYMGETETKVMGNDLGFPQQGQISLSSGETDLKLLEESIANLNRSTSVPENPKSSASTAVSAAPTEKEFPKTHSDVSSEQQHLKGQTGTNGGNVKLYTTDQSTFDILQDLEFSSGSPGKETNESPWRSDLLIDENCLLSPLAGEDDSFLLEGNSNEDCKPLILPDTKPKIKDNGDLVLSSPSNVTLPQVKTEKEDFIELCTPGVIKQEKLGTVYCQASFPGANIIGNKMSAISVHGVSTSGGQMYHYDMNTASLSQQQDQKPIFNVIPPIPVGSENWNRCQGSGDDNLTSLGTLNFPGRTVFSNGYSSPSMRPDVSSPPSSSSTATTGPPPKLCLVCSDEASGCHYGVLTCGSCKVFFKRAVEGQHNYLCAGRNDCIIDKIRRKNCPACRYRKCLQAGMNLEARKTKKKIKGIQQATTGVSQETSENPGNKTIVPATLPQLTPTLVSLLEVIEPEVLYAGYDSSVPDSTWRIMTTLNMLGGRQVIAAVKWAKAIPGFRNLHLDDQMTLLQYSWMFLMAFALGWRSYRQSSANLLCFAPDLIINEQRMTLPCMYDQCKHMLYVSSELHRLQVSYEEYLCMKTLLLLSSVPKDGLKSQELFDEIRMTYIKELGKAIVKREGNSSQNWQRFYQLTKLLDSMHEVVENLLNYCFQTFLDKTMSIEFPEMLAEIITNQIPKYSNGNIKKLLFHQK
Overview of recorded IC50 for various molecules

- molecule: "Cc1cc(C)c(S(=O)(=O)NC(CO)Cc2c[nH]c3ccccc23)c(C)c1 (stereo not given)"
  signQualifier: ">"
  IC50, µM: 2
- molecule: "Cc1cc(C)c(S(=O)(=O)NC(C)Cc2c[nH]c3ccccc23)c(C)c1 (stereo not given)"
  signQualifier: "="
  IC50, µM: 0.04
- molecule: "Cc1cc(C)c(S(=O)(=O)N[C@H](C)Cc2c[nH]c3ccccc23)c(C)c1"
  signQualifier: ">"
  IC50, µM: 2
- molecule: "CC(Cc1c[nH]c2ccccc12)NS(=O)(=O)c1cc(Cl)cc(Cl)c1O (stereo not given)"
  signQualifier: ">"
  IC50, µM: 10
- molecule: "CCC(Cc1c[nH]c2ccccc12)NS(=O)(=O)c1c(Cl)cc(Cl)cc1Cl (stereo not given)"
  signQualifier: "="
  IC50, µM: 0.064
- molecule: "CC(Cc1c[nH]c2ccccc12)NS(=O)(=O)c1ccc(Cl)c(Cl)c1Cl (stereo not given)"
  signQualifier: "="
  IC50, µM: 1.9
- molecule: "CC(Cc1c[nH]c2ccccc12)NS(=O)(=O)c1ccc(C(C)C)cc1 (stereo not given)"
  signQualifier: "="
  IC50, µM: 0.75
- molecule: "Cc1cc(C)c(S(=O)(=O)N(C)C(C)Cc2c[nH]c3ccccc23)c(C)c1 (stereo not given)"
  signQualifier: "="
  IC50, µM: 1.3
- molecule: "COc1ccc2[nH]cc(CC(C)NS(=O)(=O)c3c(Cl)cc(Cl)cc3Cl)c2c1 (stereo not given)"
  signQualifier: ">"
  IC50, µM: 2
- molecule: "Cc1cc(C)c(S(=O)(=O)NC(C)Cc2c[nH]c3ccc(F)cc23)c(C)c1 (stereo not given)"
  signQualifier: "="
  IC50, µM: 0.065
